TARGET OR TEST SYSTEM: cathepsin V (Homo sapiens)
Construct: made in house
Sequence (O60911 114-334): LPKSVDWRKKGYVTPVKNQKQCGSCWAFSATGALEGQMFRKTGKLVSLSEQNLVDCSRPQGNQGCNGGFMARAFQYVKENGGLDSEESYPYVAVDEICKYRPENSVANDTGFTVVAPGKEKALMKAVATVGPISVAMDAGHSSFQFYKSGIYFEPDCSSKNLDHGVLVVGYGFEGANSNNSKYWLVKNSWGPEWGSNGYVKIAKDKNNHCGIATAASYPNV
PROCEDURE TEXT: Substrate selectivity screening, rate of hydrolysis, cathepsin V
Assay type: biochemical
EXPERIMENTAL CONTEXT: Table S4; substrate 100µM, cathepsin 5nM; pH 5.5, 37 °C; average of at least three screenings
Non-standard residues stand in square brackets, D forms with d. *: point of attachment. Phe(3,4-Cl2) = N[C@@H](Cc1ccc(Cl)c(Cl)c1)C(=O)O; Phe(F5) = N[C@@H](Cc1c(F)c(F)c(F)c(F)c1F)C(=O)O; Phe(2-Cl) = N[C@@H](Cc1ccccc1Cl)C(=O)O; ACC = NC(=O)Cc1cc(=O)oc2cc(N*)ccc12; Tic = O=C(O)[C@@H]1Cc2ccccc2CN1; dOrn = NCCC[C@@H](N)C(=O)O; Orn = NCCC[C@H](N)C(=O)O
Returns one of MET or NOT MET; MET when Relative substrate activity (rate of hydrolysis), cathepsin V is >= 200 RFU/s.

SUBSTANCE: Ac-H[dL][Phe(3,4-Cl2)]R-{ACC} (SMILES CC(=O)N[C@@H](Cc1c[nH]cn1)C(=O)N[C@H](CC(C)C)C(=O)N[C@@H](Cc1ccc(Cl)c(Cl)c1)C(=O)N[C@@H](CCCNC(=N)N)C(=O)Nc1ccc2c(CC(N)=O)cc(=O)oc2c1)
LABEL CLASS: MET
//
SUBSTANCE: Ac-A[Orn][Phe(3,4-Cl2)]R-{ACC} (SMILES CC(=O)N[C@@H](C)C(=O)N[C@@H](CCCN)C(=O)N[C@@H](Cc1ccc(Cl)c(Cl)c1)C(=O)N[C@@H](CCCNC(=N)N)C(=O)Nc1ccc2c(CC(N)=O)cc(=O)oc2c1)
LABEL CLASS: MET
//
SUBSTANCE: Ac-HRFR-{ACC} (SMILES CC(=O)N[C@@H](Cc1c[nH]cn1)C(=O)N[C@@H](CCCNC(=N)N)C(=O)N[C@@H](Cc1ccccc1)C(=O)N[C@@H](CCCNC(=N)N)C(=O)Nc1ccc2c(CC(N)=O)cc(=O)oc2c1) [reference compound]
LABEL CLASS: MET
//
SUBSTANCE: Ac-[Tic][dOrn][Phe(2-Cl)]K-{ACC} (SMILES CC(=O)N1Cc2ccccc2C[C@H]1C(=O)N[C@H](CCCN)C(=O)N[C@@H](Cc1ccccc1Cl)C(=O)N[C@@H](CCCCN)C(=O)Nc1ccc2c(CC(N)=O)cc(=O)oc2c1) [Tic-DArg-Phe(2-Cl)-Lys]
LABEL CLASS: NOT MET
//
SUBSTANCE: Ac-H[dV][Phe(F5)]R-{ACC} (SMILES CC(=O)N[C@@H](Cc1c[nH]cn1)C(=O)N[C@@H](C(=O)N[C@@H](Cc1c(F)c(F)c(F)c(F)c1F)C(=O)N[C@@H](CCCNC(=N)N)C(=O)Nc1ccc2c(CC(N)=O)cc(=O)oc2c1)C(C)C)
LABEL CLASS: NOT MET

FYI, the data here is from paper PMC5896380.
